# Test system: DU145
# ASSAY OVERVIEW: Euclidean distance of Cell Painting phenotypic profile (signed KS, 77 features) to DMSO centroid (dimensionless distance); 5 or 10 uM (library dependent); higher = stronger phenotypic change vs DMSO (phenoactivity)
# CONDITION NOTES: 48 h
Counter-ions that a name gives are not always drawn.
ASSAY READOUT: Euclidean distance
// return a plain number; no unit text

Assay DU145, sample CCN(c1cc(-c2ccc(CN3CCOCC3)cc2)cc(C(=O)NCc2c(C)cc(C)[nH]c2=O)c1C)C1CCOCC1 [Tazemetostat (EPZ-6438)] , Euclidean distance read: 0.651

The recorded Euclidean distance with DU145 for CN(C)C(=O)COC(=O)Cc1ccc(OC(=O)c2ccc(NC(=N)N)cc2)cc1 [Camostat Mesilate] was 1.08

Field Euclidean distance (DU145), entry CC(=O)OCC(=O)[C@@]1(O)[C@H](C)C[C@H]2[C@@H]3CCC4=CC(=O)C=C[C@]4(C)[C@@]3(F)[C@@H](O)C[C@@]21C [Dexamethasone Acetate] : 2.41

Form field Euclidean distance for item CN(C)C(=O)[C@H](O)[C@H](Cc1ccccc1)NC(=O)c1cc2cc(Cl)ccc2[nH]1 on DU145: 0.712

Item: Cc1cc(F)c(Nc2ncnc3cc(OCc4ccccc4)ccc23)cc1O | System: DU145 | Euclidean distance: 0.521

Observed Euclidean distance, DU145, CC(=O)CC/C=C(\C)CC/C=C(\C)CC/C=C(\C)CCC=C(C)C : 0.749

Euclidean distance for DU145 with input CCOC(=O)[C@H](CCc1ccccc1)N[C@@H](C)C(=O)N1Cc2ccccc2C[C@H]1C(=O)O [Quinapril HCl] equals 0.942

O=c1ccn(C2OC(COP(=O)(O)O)C(O)C2O)c(=O)[nH]1 (stereo not drawn) [Uridine 5'-monophosphate] tested on DU145 gave Euclidean distance: 1.33
